molecular target: F508delCFTR (Homo sapiens, UniProt P13569, DEL508-508); construct: expressed in transfected cells; host or cells: CFBE41o- human lung derived epithelial cells (CFBE41o-F508delCFTR-HRP), doxycycline-inducible; assay: Cell Surface Expression-Horse Radish Peroxidase (CSE-HRP) Assay; assay type: cell-based; conditions: without co-corrector; maximum at any tested concentration; read-out: Maximum % activity (without co-corrector);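 as to Maximum % activity (without co-corrector): % of on-plate positive control chromenyl benzoic acid corrector at 2 or 3 µM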
Sequence (P13569 with tags, fused parts or gaps DEL508-508): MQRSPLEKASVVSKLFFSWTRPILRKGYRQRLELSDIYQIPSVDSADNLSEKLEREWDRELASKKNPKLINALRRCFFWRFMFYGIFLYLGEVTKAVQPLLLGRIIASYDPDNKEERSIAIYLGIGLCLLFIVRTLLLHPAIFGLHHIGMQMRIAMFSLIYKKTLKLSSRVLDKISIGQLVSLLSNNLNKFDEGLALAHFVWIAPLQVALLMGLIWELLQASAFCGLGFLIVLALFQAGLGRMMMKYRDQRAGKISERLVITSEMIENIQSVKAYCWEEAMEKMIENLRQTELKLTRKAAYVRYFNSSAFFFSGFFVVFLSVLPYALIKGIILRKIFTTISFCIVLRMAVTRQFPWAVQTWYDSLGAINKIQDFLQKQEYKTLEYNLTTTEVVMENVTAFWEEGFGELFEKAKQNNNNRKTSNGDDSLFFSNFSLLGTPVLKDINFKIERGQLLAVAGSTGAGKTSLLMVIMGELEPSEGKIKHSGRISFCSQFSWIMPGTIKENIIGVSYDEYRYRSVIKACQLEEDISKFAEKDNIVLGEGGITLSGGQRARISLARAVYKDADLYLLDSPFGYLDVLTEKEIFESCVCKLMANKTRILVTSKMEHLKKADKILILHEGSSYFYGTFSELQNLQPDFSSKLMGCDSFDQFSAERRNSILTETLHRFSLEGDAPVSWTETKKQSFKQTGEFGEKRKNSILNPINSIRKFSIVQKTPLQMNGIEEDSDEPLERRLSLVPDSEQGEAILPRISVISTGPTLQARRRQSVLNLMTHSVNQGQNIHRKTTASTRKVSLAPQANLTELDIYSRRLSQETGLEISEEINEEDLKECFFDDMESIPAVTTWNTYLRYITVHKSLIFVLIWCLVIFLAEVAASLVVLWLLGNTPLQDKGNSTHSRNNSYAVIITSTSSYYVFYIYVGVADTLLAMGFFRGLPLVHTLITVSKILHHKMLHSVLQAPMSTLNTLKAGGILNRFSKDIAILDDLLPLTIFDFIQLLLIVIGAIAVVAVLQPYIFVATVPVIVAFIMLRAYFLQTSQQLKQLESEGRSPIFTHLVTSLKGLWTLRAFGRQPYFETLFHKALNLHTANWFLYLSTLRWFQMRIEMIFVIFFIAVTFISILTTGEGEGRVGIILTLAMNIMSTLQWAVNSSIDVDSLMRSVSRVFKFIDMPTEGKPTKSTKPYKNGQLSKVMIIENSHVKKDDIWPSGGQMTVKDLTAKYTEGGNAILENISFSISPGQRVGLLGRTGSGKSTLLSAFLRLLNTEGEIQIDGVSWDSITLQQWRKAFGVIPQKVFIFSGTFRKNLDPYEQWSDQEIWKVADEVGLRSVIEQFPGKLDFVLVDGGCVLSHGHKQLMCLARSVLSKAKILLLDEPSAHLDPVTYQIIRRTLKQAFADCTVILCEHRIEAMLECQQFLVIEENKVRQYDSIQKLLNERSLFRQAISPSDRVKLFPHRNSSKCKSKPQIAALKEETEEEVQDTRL
parameter: Emax

# count of solved cases: 5
• COc1ccc2c(S(=O)(=O)NC(=O)C3(c4cc(C5CC5)cnc4OC(C)C)CC3)cccc2n1 [II-95] = > 150%
• COc1cc(C2CCC2)cc(OC)c1C1(C(=O)NS(=O)(=O)c2cccc3nc(N)ccc23)CC1 [II-70] = > 150%
• COc1ncc(C(F)(F)F)cc1C1(C(=O)NS(=O)(=O)c2cccc3nc(C)ccc23)CC1 [II-9] = > 150%
• COc1ccc(C2CC2)c(C)c1C1(C(=O)NS(=O)(=O)c2cccc3ncccc23)CC1 [Example I-48] = > 150%
• Cc1ccc(OC(F)F)c(C2(C(=O)NS(=O)(=O)c3cccc4ncccc34)CC2)c1 [Example I-100] = > 150%

compound COc1ccc(C2CC2)cc1C1(C(=O)NS(=O)(=O)c2cccc3nc(C)ccc23)CC1 [II-60] , Emax observed: > 150%

Recorded Emax (compound COc1cccc(C)c1C1(C(=O)NS(=O)(=O)c2cccc3ncccc23)CC1 [II-35] ): > 150%

Summary for this compound, CCc1ccc(OC)c(C2(C(=O)NS(=O)(=O)c3cccc4[nH]ncc34)CC2)c1 [II-72] : Emax is > 150%

----------
Listed here are molecules together with their documented EC50.
Target: F508delCFTR (Homo sapiens, UniProt P13569, DEL508-508)
Construct: expressed in transfected cells; host or cells: CFBE41o- human lung derived epithelial cells (CFBE41o-F508delCFTR-HRP), doxycycline-inducible
Assay: Cell Surface Expression-Horse Radish Peroxidase (CSE-HRP) Assay
Type: cell-based
Settings: with co-corrector; read-out: EC50 (with co-corrector)
Description: A cellular assay for measuring the F508delCFTR cell surface expression after correction with test compounds either without or with a co-corrector (2 μM of 3-[(2R,4R)-4-({[1-(2,2-difluoro-1,3-benzodioxol-5-yl)cyclopropyl]carbonyl}amino)-7-methoxy-3,4-dihydro-2H-chromen-2-yl]benzoic acid), was developed in human lung derived epithelial cell line (CFBE4lo−) (Veit G et al, (2012) Mol Biol Cell. 23(21): 4188-4202). […] The raw counts from the experiment were analyzed using Accelrys® Assay Explorer v3.3. […]

Known EC50 results, listed for orientation:
- Cc1ccc2c(S(=O)(=O)NC(=O)C3(c4cc(Cl)ccc4OC(F)F)CC3)cccc2n1: < 3 µM
- CC(=O)N1CCc2cc(S(=O)(=O)NC(=O)C3(c4cccc(Cl)c4)CC3)ccc21: > 10 µM
- COc1cccc(C2(C(=O)NS(=O)(=O)c3cccc4ccccc34)CC2)c1: 3 to 10 µM

Record COc1ccc2c(S(=O)(=O)NC(=O)C3(c4cc(C5CC5)cnc4OC(C)C)CC3)cccc2n1 . Reported EC50: < 3 µM

Lookup result for CCC(CC)S(=O)(=O)NC(=O)C1(c2ccccc2)CC1 ; measured EC50: > 10 µM

Value of EC50 reported for the molecule COc1ccc(OC2CCC2)cc1C1(C(=O)NS(=O)(=O)c2cccc3ncccc23)CC1 is < 3 µM

response.value for CCOc1ccc(C(C)(C)OCC)cc1C1(C(=O)NS(=O)(=O)c2cccc3ncccc23)CC1 (field: EC50) = < 3 µM

For O=C(NS(=O)(=O)c1ccccc1)C1(c2ccc(Cl)cc2)CC1 the molecule record lists EC50 as 3 to 10 µM

----------
// EC50 lookup, one value per entry
target: F508delCFTR (Homo sapiens, UniProt P13569, DEL508-508); construct: expressed in transfected cells; host or cells: CFBE41o- human lung derived epithelial cells (CFBE41o-F508delCFTR-HRP), doxycycline-inducible; assay: Cell Surface Expression-Horse Radish Peroxidase (CSE-HRP) Assay; format: cell-based; conditions: with co-corrector; read-out: EC50 (with co-corrector);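 as to EC50 (with co-corrector): co-corrector chromenyl benzoic acid corrector at 2 or 3 µM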

• COc1cccc(OC)c1C1(C(=O)NS(=O)(=O)c2cccc3ccccc23)CC1 = < 3 µM

EC50 for Cc1cnc(OCC(C)C)c(C2(C(=O)NS(=O)(=O)c3cccc4nc(N)ccc34)CC2)c1 is < 3 µM

The value of EC50 measured for the compound COc1ccc(C2(C)COC2)cc1C1(C(=O)NS(=O)(=O)c2cccc3ncccc23)CC1 turned out to be 3 to 10 µM

# EC50 (compound: CCCS(=O)(=O)NC(=O)C1(c2cccc(C)c2)CCOCC1 ) is > 10 µM

----------
biological target: F508delCFTR (Homo sapiens, UniProt P13569, DEL508-508); construct: expressed in transfected cells; host or cells: CFBE41o- human lung derived epithelial cells (CFBE41o-F508delCFTR-HRP), doxycycline-inducible; test: Cell Surface Expression-Horse Radish Peroxidase (CSE-HRP) Assay; format: cell-based; conditions: test compound without co-corrector; read-out: EC50 (without co-corrector)
pEC50: −log10 of the molar value.
parameter: pEC50

Guide cases for pEC50, answers given:
* Cc1cnc(C2(C(=O)NS(=O)(=O)c3cccc4[nH]ccc34)CC2)c(C2CC2)c1 | 5.00 to 5.52
* Cc1cnc(OC(C)C)c(C2(C(=O)NS(=O)(=O)c3cccc4nc(C)ccc34)CC2)c1 | > 5.52
* COc1cc(C2(C(=O)NS(=O)(=O)c3cccc4[nH]ccc34)CC2)c(OCC2CC2)cn1 | > 5.52

pEC50 for Cc1cnc(N2CCCC2)c(C2(C(=O)NS(=O)(=O)c3cccc4ncccc34)CC2)c1 is 5.00 to 5.52

----------
biological target: F508delCFTR (Homo sapiens, UniProt P13569, DEL508-508); construct: expressed in transfected cells; host or cells: CFBE41o- human lung derived epithelial cells (CFBE41o-F508delCFTR-HRP), doxycycline-inducible; experiment: Cell Surface Expression-Horse Radish Peroxidase (CSE-HRP) Assay; format: cell-based; settings: without co-corrector; maximum at any tested concentration; read-out: Maximum % activity (without co-corrector);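 as to Maximum % activity (without co-corrector): % of on-plate positive control chromenyl benzoic acid corrector at 2 or 3 µM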
parameter: Emax

Query COc1ccc(C)cc1C1(C(=O)NS(=O)(=O)c2cccc3[nH]ccc23)CC1 [Example I-49] yields Emax of > 150%

What the record says about CCOc1ccc(C)cc1C1(C(=O)NS(=O)(=O)c2cccc3nc(N)ccc23)CC1 [Example I-89] : Emax is > 150%

Recorded Emax (compound COc1cccc(C2CCC2)c1C1(C(=O)NS(=O)(=O)c2cccc3ncccc23)CC1 [Example I-51] ): > 150%

----------
target: F508delCFTR (Homo sapiens, UniProt P13569, DEL508-508); construct: expressed in transfected cells; host or cells: CFBE41o- human lung derived epithelial cells (CFBE41o-F508delCFTR-HRP), doxycycline-inducible; assay: Cell Surface Expression-Horse Radish Peroxidase (CSE-HRP) Assay; type: cell-based; details: without co-corrector; maximum at any tested concentration; read-out: Maximum % activity (without co-corrector);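 as to Maximum % activity (without co-corrector): % of on-plate positive control chromenyl benzoic acid corrector at 2 or 3 µM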
parameter: Emax

• COc1ccc(C2(OC)CCC2)cc1C1(C(=O)NS(=O)(=O)c2cccc3ncccc23)CC1 = > 150%
• CCOc1ccc(C)cc1C1(C(=O)NS(=O)(=O)c2cccc3ncccc23)CC1 = > 150%
• COc1ccc(Br)cc1C1(C(=O)NS(=O)(=O)c2cccc3c2CCCN3)CC1 = > 150%

Bench note, F508delCFTR (Homo sapiens, UniProt P13569, DEL508-508): entry COc1ncc(C2CCC2)cc1C1(C(=O)NS(=O)(=O)c2cccc3c2ccn3C)CC1 , its Emax = > 150%

The molecule COc1ccc(C2CCC2)cc1C1(C(=O)NS(=O)(=O)c2cccc3cnn(C)c23)CC1 , tested on F508delCFTR (Homo sapiens, UniProt P13569, DEL508-508), showed Emax of > 150%

Emax value, target or system F508delCFTR (Homo sapiens, UniProt P13569, DEL508-508), for COc1ccc(C)c(C)c1C1(C(=O)NS(=O)(=O)c2cccc3c2CCCN3)CC1 : > 150%

GET /values?item= Cc1ccc(C)c(C2(C(=O)NS(=O)(=O)c3cccc4nc(N)ccc34)CC2)c1 &system= F508delCFTR (Homo sapiens, UniProt P13569, DEL508-508) returns Emax: > 150%

Lab note: molecule CCOc1ccc2nc(S(=O)(=O)NC(=O)C3(c4cccc(Cl)c4)CC3)sc2c1 tested on F508delCFTR (Homo sapiens, UniProt P13569, DEL508-508); recorded Emax was < 50%

GET /values?item= CCc1cccc(OC)c1C1(C(=O)NS(=O)(=O)c2cccc3nc(C)ccc23)CC1 &system= F508delCFTR (Homo sapiens, UniProt P13569, DEL508-508) returns Emax: > 150%

# lookup: CCCS(=O)(=O)NC(=O)C1(c2cccc(C)c2)CCOCC1 on F508delCFTR (Homo sapiens, UniProt P13569, DEL508-508), Emax = < 50%

Kindly note: F508delCFTR (Homo sapiens, UniProt P13569, DEL508-508), COc1ccc(C2CCCC2)cc1C1(C(=O)NS(=O)(=O)c2cccc3c2CCCN3)CCC1 , Emax value reported: > 150%

Fill in: F508delCFTR (Homo sapiens, UniProt P13569, DEL508-508) Emax for CCOc1ccc(C)cc1C1(C(=O)NS(=O)(=O)c2cccc3nc(OC)ccc23)CC1 = > 150%

Short answer on F508delCFTR (Homo sapiens, UniProt P13569, DEL508-508) for O=C(O)c1ccccc1S(=O)(=O)NC(=O)C1(c2ccc(Cl)cc2Cl)CC1 , Emax: < 50%

Recorded Emax for COC[C@H](C)Oc1ccc(C)cc1C1(C(=O)NS(=O)(=O)c2cccc3ncccc23)CC1 on F508delCFTR (Homo sapiens, UniProt P13569, DEL508-508) was > 150%

Lab entry: F508delCFTR (Homo sapiens, UniProt P13569, DEL508-508) assay, molecule COc1ccc(C2CCC2)c(C2(C(=O)NS(=O)(=O)c3cccc4nc(C)ccc34)CC2)c1 , Emax = > 150%

Noted Emax for CC(C)Oc1ncc(C2CCC2)cc1C1(C(=O)NS(=O)(=O)c2cccc3[nH]ccc23)CC1 , tested on F508delCFTR (Homo sapiens, UniProt P13569, DEL508-508): > 150%

The observed Emax for COc1ccc(C2(OC)CCC2)cc1C1(C(=O)NS(=O)(=O)c2cccc3nc(C)ccc23)CC1 when tested with F508delCFTR (Homo sapiens, UniProt P13569, DEL508-508) stands at > 150%
